System: UACC-62 melanoma
Test: NCI tumour cell line growth inhibition, 48 h
property_label: TGI (µM)
Number only, in µM; omit the unit.

// known answers, use as guide
O=C(NCCc1ccccc1)c1cc(/C=C/c2cc(O)ccc2O)ccc1O = 5.03
NCCCn1c2c(c3ccc([N+](=O)[O-])cc3c1=O)C(=O)c1cc(F)ccc1-2 = 0.165
CC(=O)OCC1OC(OC(C)=O)C(Nc2ncc(-c3ccc(C)cc3)s2)C(OC(C)=O)C1OC(C)=O (centres undefined) = 29

We next turn to a different compound, shown below.
So what's the measured TGI for this one? `CC(=O)Oc1c(Br)ccc2cc(C(Br)Br)c(C(=O)c3ccccc3)nc12` 39.4

---

Test system: SF-295 CNS
Test: NCI tumour cell line growth inhibition, 48 h
Listing of recorded TGI by entry.

Here's what some known entries look like.
C1=C(c2ccccc2)O[C@H](COCc2ccccc2)C(OCc2ccccc2)[C@@H]1OCc1ccccc1 (stereo partly drawn) = > 10 µM
CCOC(=O)C1=CNC(C(=O)OCC)C1c1cccn1-c1ccccc1 (stereo not drawn) = 74.5 µM
CC1(C)OC2C(CO)OC(n3ccc(N)nc3=O)C2O1 (stereo not drawn) = > 100 µM
NC(Cc1ccccc1)c1nn[nH]n1 (stereo not drawn) = > 100 µM
C#CCn1c(=O)c2cccnc2n(CC#C)c1=O = > 100 µM

Quick one: TGI of CCC(C)CC(C)C(=O)c1c(O)ccn(O)c1=O (stereo not drawn) ? 49.6 µM

Would you mind telling me what TGI value was observed for `Cc1cccc2c1c(=O)c1c(O)cc3c(c1n2C)C=CC(C)(C)O3` ? > 100 µM

---

Quick list: TGI per entry.
Tested on: SF-539 CNS
Assay: NCI tumour cell line growth inhibition, 48 h

Answered examples (8):
NC(Cc1ccccc1)c1nn[nH]n1 (stereo not given) = > 100 µM
O=c1[nH]c2ccccc2n2cc3ccccc3c12 = 22.2 µM
COc1ccc(-n2c(Cn3nnc(-c4cccnc4)n3)nn(C3OC(COC(=O)c4ccccc4)C(OC(=O)c4ccccc4)C3OC(=O)c3ccccc3)c2=S)cc1 (stereo not given) = > 100 µM
CCCCCCCC(CC(=O)NC(CO)C(=O)NC(CO)CC(C)C)OC(=O)CC(CCCCCCC)OC(=O)CC(CCCCCCC)OC1OC(C)C(O)C(OC2OC(C)C(O)C(O)C2O)C1O (stereo not given) = 24.7 µM
Cn1c(=O)c2[nH]c(CCCc3ccc([N+](=O)[O-])cc3)nc2n(C)c1=O = > 100 µM
O=C1CCN2C(=N1)Sc1ccccc12 = > 100 µM
O=C1c2cccnc2C(=O)c2c1c(C(=O)OCCc1ccccn1)c1ccccn21 = 0.432 µM
c1ccc2cc(CNCCCCNCCCNCc3ccc4ccccc4c3)ccc2c1 = 3.47 µM

Can you look up the measured TGI of `O=[N+]([O-])c1ccc(/C(Cl)=C/c2ccc(/C=C(\Cl)c3ccc([N+](=O)[O-])cc3[N+](=O)[O-])cc2)c([N+](=O)[O-])c1` for me? > 100 µM

# TGI lookup, item `NC(=O)CCc1ccccc1Oc1nccc(-c2c(-c3ccc(F)cc3)ncn2C2CCNCC2)n1` > 25 µM

Entry under review: `O=C(O)c1ccc(C(=O)O)c(C(=O)O)c1.[NH-]C1CCCCC1[NH-].[Pt+2]` . Reported TGI? 43.5 µM
